Kindly state viability for each of the entries shown.
Protocol: reversal of MRP1-mediated doxorubicin resistance, pilot screen, H69AR cells, doxorubicin co-treatment (AID 601)
Stated conditions: H69AR cells, CellTiter-Glo, 72 h; compound alone cytotoxicity; at 10 µM
Give bare numbers, in %.

These recorded examples may help you get a feel for the data.
- Molecule: "COc1ccc(OC)c(Nc2nc(-c3sc(N)nc3C)cs2)c1"
  Endpoint: "viability"
  Recorded result: 78
- Molecule: "C=CCn1c(=O)c2ccccc2n2c(SC(C)C(=O)Nc3nc(-c4ccccc4)cs3)nnc12 (stereo unspecified)"
  Endpoint: "viability"
  Recorded result: 79.6
- Molecule: "Cc1ccc(S(=O)(=O)N2CCN(S(=O)(=O)N(C)C)CC2)cc1"
  Endpoint: "viability"
  Recorded result: 103
- Molecule: "COc1cccc(OCCn2ccnc2)c1"
  Endpoint: "viability"
  Recorded result: 89.4
- Molecule: "FC(F)(F)c1ccc(Sc2nnc(-c3cccs3)n2CC2CCCO2)nc1 (stereo unspecified)"
  Endpoint: "viability"
  Recorded result: 94.5

# per-item lookup of viability; items listed below
1. CCOc1cc(C(=O)N(C)Cc2cc3cc(OC)ccc3[nH]c2=O)cc(OCC)c1OCC
2. O=C(NCc1cccnc1)c1cccc(C(F)(F)F)c1
3. CCOc1ccc(OCC)c(NC(=O)C2CCN(S(=O)(=O)c3cnc[nH]3)CC2)c1
4. CC(=O)Nc1ccc(Cc2ccncc2)cc1

a:
1. 95.1
2. 112
3. 111
4. 96.1

Working through the 2 molecules below one at a time, give viability for each.
1. Cc1cc(C)c2c(n1)nn1c(NCCCN3CCOCC3)cc(C)nc21
2. CC1c2nc3ccccc3n2C(CC(=O)NCc2ccccn2)C(=O)N1Cc1ccccc1 (stereo unspecified)

a:
[97.7, 92.8]

---

Protocol: reversal of MRP1-mediated doxorubicin resistance, pilot screen, H69AR cells, doxorubicin co-treatment (AID 601)
Stated conditions: H69AR cells + 2 uM doxorubicin, CellTiter-Glo, 72 h; measured here: viability with 2 uM doxorubicin; at 10 µM; stronger effect = lower value
Lab note: class by viability, see A (below 70%), B (70% to below 90%), C (90% or more)

- Compound: "C=CCn1c(SCc2cc(=O)n3ccsc3n2)nnc1C1CCCCC1"
  Label: "B"
- Compound: "COc1ccc(/C=N/n2cnnc2SCc2ccc(OC)cc2)cc1"
  Label: "C"
- Compound: "O=C(CSc1nc(N2CCCCC2)nc(N2CCCCC2)n1)Nc1nccs1"
  Label: "B"
- Compound: "N#C/C(C(=O)NCc1ccco1)=C1/SC(Cc2ccc(F)cc2)C(=O)N1c1ccccc1 (stereo unspecified)"
  Label: "A"
- Compound: "CCOC(=O)c1c(NC(=O)COC(=O)c2c(C)noc2C)sc2c1CCC2"
  Label: "A"

q: Categorize the following entry: Cc1ccc(N(Cc2ccco2)C(=O)c2cccc(S(=O)(=O)N(C)C)c2)cc1
a: C

q: Record Clc1ccc(C2=Nn3c(nnc3-c3n[nH]c4c3CCC4)SC2)cc1Cl — which class?
a: A

---

Assayed system: Receptor tyrosine-protein kinase erbB-2 (Homo sapiens) (UniProt P04626)
Sequence (P04626 whole entry, looked up): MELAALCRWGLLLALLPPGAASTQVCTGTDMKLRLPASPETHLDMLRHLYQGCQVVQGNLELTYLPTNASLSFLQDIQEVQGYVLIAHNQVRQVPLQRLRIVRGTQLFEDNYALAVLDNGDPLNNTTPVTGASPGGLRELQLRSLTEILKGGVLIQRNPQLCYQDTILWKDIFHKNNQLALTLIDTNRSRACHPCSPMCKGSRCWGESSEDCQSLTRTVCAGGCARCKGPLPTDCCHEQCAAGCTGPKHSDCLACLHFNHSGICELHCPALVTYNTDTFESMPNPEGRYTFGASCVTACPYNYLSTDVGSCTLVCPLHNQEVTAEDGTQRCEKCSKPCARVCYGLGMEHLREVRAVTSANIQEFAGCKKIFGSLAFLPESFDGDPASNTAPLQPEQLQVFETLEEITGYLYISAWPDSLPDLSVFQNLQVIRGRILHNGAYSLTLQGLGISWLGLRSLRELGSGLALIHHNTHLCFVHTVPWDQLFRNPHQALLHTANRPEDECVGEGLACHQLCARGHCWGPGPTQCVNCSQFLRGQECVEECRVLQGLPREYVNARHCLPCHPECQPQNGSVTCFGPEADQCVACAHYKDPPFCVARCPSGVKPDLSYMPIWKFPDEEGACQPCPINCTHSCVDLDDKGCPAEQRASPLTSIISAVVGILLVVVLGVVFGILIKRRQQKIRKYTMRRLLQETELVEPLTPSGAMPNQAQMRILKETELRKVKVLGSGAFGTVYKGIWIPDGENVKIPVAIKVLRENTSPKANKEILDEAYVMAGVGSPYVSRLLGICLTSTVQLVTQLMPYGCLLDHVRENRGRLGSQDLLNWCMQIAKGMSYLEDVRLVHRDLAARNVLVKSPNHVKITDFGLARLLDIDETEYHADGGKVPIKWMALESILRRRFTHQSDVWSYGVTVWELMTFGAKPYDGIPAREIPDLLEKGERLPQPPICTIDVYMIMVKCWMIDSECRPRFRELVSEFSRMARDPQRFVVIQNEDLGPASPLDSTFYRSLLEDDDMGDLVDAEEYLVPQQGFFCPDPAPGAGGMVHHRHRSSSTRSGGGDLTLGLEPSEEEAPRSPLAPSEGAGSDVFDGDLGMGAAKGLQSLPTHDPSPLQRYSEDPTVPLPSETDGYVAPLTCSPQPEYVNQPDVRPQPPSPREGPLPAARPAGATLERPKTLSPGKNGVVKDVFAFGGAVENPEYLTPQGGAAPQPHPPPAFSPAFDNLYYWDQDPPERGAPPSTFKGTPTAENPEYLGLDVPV
Protocol: reducers of endogenous Her2 protein level, primary screen, SKBR3 breast tumor cells, AlphaScreen, ATP viability (AID 461);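 also: lower value means less Her2 protein in the cells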
Stated conditions: 18-24 h, at 10 µM, stronger effect = lower value
Output fulfilled for records whose Her2 level is lower than 90%, not fulfilled for records at or above 90%.

Below, 2 compounds whose answers are already recorded.
- Compound: "CCc1cc2c(=O)c(-c3nc4ccccc4[nH]3)coc2cc1OC(=O)N1CCOCC1"
  Assayed system: "Receptor tyrosine-protein kinase erbB-2 (Homo sapiens) (UniProt P04626)"
  Label: "fulfilled"
- Compound: "Nc1c(C(=O)NCc2ccco2)nnn1Cc1ccccc1"
  Assayed system: "Receptor tyrosine-protein kinase erbB-2 (Homo sapiens) (UniProt P04626)"
  Label: "not fulfilled"

q: Consider O=C(CN(Cc1cccs1)C(=O)CNS(=O)(=O)c1ccccc1)NCc1ccco1 . Does its Her2 level lie strictly below 90%?
a: not fulfilled

q: Take the compound CC1=C(C(=O)NCc2ccccn2)C2(CCC(C)CC2)OC1=O (stereo not drawn) and say whether its Her2 level is less than 90%.
a: not fulfilled

q: Does the reported Her2 level of CCc1cc2c(=O)c(-c3ccc4c(c3)OCCO4)coc2cc1OC(=O)c1ccco1 stay below 90%?
a: fulfilled

q: For this compound, is Her2 level lower than 90%? COc1ccc(-c2noc(CN3C(=O)c4ccccc4C3=O)n2)cc1
a: not fulfilled

---

Protocol: reversal of MRP1-mediated doxorubicin resistance, pilot screen, H69AR cells, doxorubicin co-treatment (AID 601)
Stated conditions: H69AR cells + 2 uM doxorubicin, CellTiter-Glo, 72 h; measured here: viability with 2 uM doxorubicin; at 10 µM; stronger effect = lower value
viability less than 90% is true (1); viability greater than or equal to 90% is false (0).

- Compound: "O=C(CSc1nc2cc(S(=O)(=O)N3CCOCC3)ccc2o1)NC1CCCc2ccccc21 (stereo not given)"
  Label: "true (1)"
- Compound: "N#CC1=C(SCc2ccccc2)NC(=O)C(C#N)C12CCCC2 (stereo not given)"
  Label: "false (0)"
- Compound: "CC(C)Cn1c(N)c(C(=O)NCc2cccs2)c2nc3ccccc3nc21"
  Label: "true (1)"
- Compound: "COc1cccc(Cn2c(-c3nonc3N)nc3ccccc32)c1"
  Label: "true (1)"
- Compound: "CC(C)CC1NC(=O)N(CC(=O)N2CCN(S(=O)(=O)c3ccc(Cl)cc3)CC2)C1=O (stereo not given)"
  Label: "false (0)"
- Compound: "O=C(Oc1cc2oc(=O)c3c(c2cc1Cl)CCCC3)c1ccco1"
  Label: "false (0)"
- Compound: "CCOc1ccc2[nH]c(O)c(NC(C)=O)c2c1"
  Label: "false (0)"
- Compound: "CCCCn1cnc2c(c1=O)c1nc3ccccc3nc1n2Cc1ccc2c(c1)OCO2"
  Label: "true (1)"
- Compound: "CCOc1cc(C(=O)Nc2ncccn2)cc(OCC)c1OCC"
  Label: "true (1)"
- Compound: "CN(C)Cc1c(O)ccc2oc(Cc3ccccc3)cc12"
  Label: "true (1)"

q: Identify whether the compound COC(=O)CN(c1ccc(F)cc1)S(=O)(=O)c1ccccc1 records viability below 90%.
a: false (0)

q: Item Cc1cccc2c1nc(-c1ccccc1)n1cnnc21 : viability beneath 90%, strictly?
a: false (0)

---

Protocol: HUVEC growth inhibition – cell-based, human, primary screen (AID 575);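 also: 100% = median of untreated cell wells with 0.1% DMSO on each plate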
Stated conditions: HUVEC proliferation, CellTiter-Glo luminescence, 72 h; at 10 µM; stronger effect = lower value
Give measured viability for each item. Keep answers brief.
Give bare numbers, in %.

Consider the worked cases shown below.
- Molecule: "Cc1nc2c(c(=O)n1CC1CCCO1)c1nc3ccccc3nc1n2CC(C)C (stereo unspecified)"
  Unit label: "%"
  viability: 104
- Molecule: "CCOC(=O)c1ccc(NC(=O)N2CCN(Cc3cccc(F)c3)CC2)cc1"
  Unit label: "%"
  viability: 105
- Molecule: "O=C1C2C3C=CC(C3)C2C(=O)N1CNc1ccc(O)cc1 (stereo unspecified)"
  Unit label: "%"
  viability: 93.7

Look up viability for the entries below, preserving their order.
1. N#CC1=C(N)Oc2c(ccc3cccnc23)C1c1cccnc1 (stereo unspecified)
2. CC1CCN(c2oc(-c3cccc4ccccc34)nc2C#N)CC1

a:
60
81.7

Could I get viability for every one of these entries?
1. COc1ccc(CCN(C)CCCC(C#N)(c2cc(OC)c(OC)c(OC)c2)C(C)C)cc1OC (stereo unspecified)
2. CN(Cc1ccccc1)C(=O)c1cc(-c2ccc(Br)cc2)on1

a:
1. 64.6
2. 94.2

// for each molecule in input: emit viability
1. COC(=O)c1cn(-c2ccccc2)nc1C(=O)OC
2. CCOC(=O)c1c(N)nn(C(=O)C(C)C)c1-c1ccccc1
3. CCOc1ccc(C2/C(=C(/O)c3ccccc3)C(=O)C(=O)N2CCCN(C)C)cc1OC (stereo unspecified)

a:
1. 91
2. 82.5
3. 111

q: Given CSc1nnc(-c2cnccn2)n1Cc1ccccc1 , state its recorded viability.
a: 92.5

---

Please go through the items and note down their viability.
Protocol: HUVEC growth inhibition – cell-based, human, primary screen (AID 575);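 also: 100% = median of untreated cell wells with 0.1% DMSO on each plate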
Stated conditions: HUVEC proliferation, CellTiter-Glo luminescence, 72 h; at 10 µM; stronger effect = lower value
One number for each entry, in %.

Before answering, review these 2 worked examples.
- Compound: "c1ccc(Cn2nnnc2CN2CCCC2)cc1"
  Endpoint: "viability"
  Unit label: "%"
  Recorded result: 101
- Compound: "Cc1ccc(-n2ncc3c(N4CCN(c5ccccc5)CC4)ncnc32)c(C)c1"
  Endpoint: "viability"
  Unit label: "%"
  Recorded result: 57.9

For each of the compounds below, state viability.
1. Cc1cc(=O)n2nc(N3CCCC(C(=O)N4CCc5ccccc54)C3)sc2n1 (configuration not stated)
2. COc1cc(S(=O)(=O)NC2CCCCC2C)ccc1Cl (configuration not stated)
3. CN1CCc2c(sc3c2c(=O)n(-c2cccc(Cl)c2)c2nncn32)C1
4. Cc1cc(C)n(-c2nc3c(c(=O)[nH]c(=O)n3C)n2Cc2ccc(F)cc2)n1
5. CCOC(=O)Cc1nnc(NC(=O)CSc2nnc3c4ccccc4n(C(C)C)c3n2)s1
6. Nc1nc(-c2ccccc2)cc(C(F)(F)F)n1
7. COc1ccc(CN(C(=O)CN2C(=O)COc3ccccc32)C2CCCC2)c(OC)c1

a:
1: 87.1; 2: 98.3; 3: 84.5; 4: 113; 5: 83.9; 6: 95.4; 7: 87.4
